# Test details: The drug is tested on Z-028 corresponding to mouse gut metagenome with ENA study accession number: PRJEB37062 and ENA sample accession number: ERS12561827 for biotransformation under anaerobic condition. The drug concentrations were measured over 9 timepoints collected between 0 and 24 hours of incubation by liquid-chromatography-coupled mass spectrometry (LC–MS); further: call rule not given here
# Experimental setup: 2 µM
Test readout: Bacterial Biotransformation

[[record]]
molecule = "N#Cc1ccc(C(c2ccc(C#N)cc2)n2cncn2)cc1"
assay_result = "Compound NOT metabolized"

[[record]]
molecule = "CCCCCCOC(=O)/N=C(/N)c1ccc(NCc2nc3cc(C(=O)N(CCC(=O)OCC)c4ccccn4)ccc3n2C)cc1.CS(=O)(=O)O [DABIGATRAN ETEXILATE MESYLATE]"
assay_result = "Compound NOT metabolized"

[[record]]
molecule = "Cc1ccc(-c2nc3ccc(C)cn3c2CC(=O)N(C)C)cc1"
assay_result = "Compound NOT metabolized"


----------
# Test details: The drug is tested on WLS-027 corresponding to human gut metagenome with ENA study accession number: PRJEB37062 and ENA sample accession number: ERS12561744 for biotransformation under anaerobic condition. The drug concentrations were measured over 9 timepoints collected between 0 and 24 hours of incubation by liquid-chromatography-coupled mass spectrometry (LC–MS)
# Experimental setup: 2 µM
Test readout: Bacterial Biotransformation

Examples with their reported Bacterial Biotransformation follow.
[[record]]
compound = "NC(=O)N1c2ccccc2CC(=O)c2ccccc21 [OXCARBAZEPINE]"
assay_result = "Compound NOT metabolized"

[[record]]
compound = "C=CCc1ccccc1OCC(O)CNC(C)C (stereo not drawn) [ALPRENOLOL]"
assay_result = "Compound NOT metabolized"

[[record]]
compound = "CCN(CC)CC#CCOC(=O)C(O)(c1ccccc1)C1CCCCC1.Cl (stereo not drawn) [OXYBUTYNIN CHLORIDE]"
assay_result = "Compound metabolized"

[[record]]
compound = "CC(C)OC(=O)C(C)(C)Oc1ccc(C(=O)c2ccc(Cl)cc2)cc1 [FENOFIBRATE]"
assay_result = "Compound metabolized"

[[record]]
compound = "CN(C(=O)CN(CCO)CC(=O)N(C)C(C)(C)Cc1ccccc1)C(C)(C)Cc1ccccc1 [OXETHAZAINE]"
assay_result = "Compound metabolized"

[[record]]
compound = "NC(CO)(CO)CO.O=C(c1ccccc1)c1ccc2n1CCC2C(=O)O (stereo not drawn) [KETOROLAC TROMETHAMINE]"
assay_result = "Compound metabolized"

[[record]]
compound = "CCN(CC)CCNC(=O)c1cc(Cl)c(N)cc1OC [METOCLOPRAMIDE]"
assay_result = "Compound NOT metabolized"

[[record]]
compound = "COc1cc2c(c(OC)c1OC)-c1ccc(OC)c(=O)cc1[C@@H](NC(C)=O)CC2 [COLCHICINE]"
assay_result = "Compound NOT metabolized"


Task: Suppose we examine the compound Clc1ccc(Cn2c(CN3CCCC3)nc3ccccc32)cc1 [CLEMIZOLE] ; what Bacterial Biotransformation value has been reported?
Output: Compound metabolized

Task: Proceed to CCN(CC)CCOCCOC(=O)C1(c2ccccc2)CCCC1.O=C(O)CC(O)(CC(=O)O)C(=O)O [CARBETAPENTANE CITRATE]
Output: Compound metabolized

Task: Proceed to O=C1NCC2(CCN(CCc3ccccc3)CC2)O1 [FENSPIRIDE]
Output: Compound NOT metabolized

Task: Proceed to N#Cc1ccc(C(c2ccc(C#N)cc2)n2cncn2)cc1 [LETROZOLE]
Output: Compound NOT metabolized

Task: Proceed to OCCOCCN1CCN(C2=Nc3ccccc3Sc3ccccc32)CC1 [QUETIAPINE]
Output: Compound metabolized

Task: Proceed to `CCOC(=O)[C@H](CCc1ccccc1)N[C@@H](C)C(=O)N1[C@H](C(=O)O)C[C@@H]2CCC[C@@H]21`
Output: Compound metabolized

Task: Proceed to CCCCCOC(=O)Nc1nc(=O)n([C@@H]2O[C@H](C)[C@@H](O)[C@H]2O)cc1F [CAPECITABINE]
Output: Compound metabolized

Task: Proceed to CC(C)N(CCC(C(N)=O)(c1ccccc1)c1ccccn1)C(C)C.O=P(O)(O)O (stereo not drawn) [DISOPYRAMIDE PHOSPHATE]
Output: Compound NOT metabolized

Attribution: ChEMBL document CHEMBL5724914
